Please go through the items and note down their growth at 10 µM.
System: SW-620
Assay: Growth inhibition of human SW620 cells assessed as cell growth at 10 uM incubated for 48 hrs by sulforhodamine B assay relative to control
Type: functional
Details: SW-620, 48 h, read-out: Activity
Answer format: numeric, % implied, no suffix.

// fetch growth at 10 µM; item: COc1cc2cc(Oc3ccc(NC(=O)Nc4ccc(C(F)(F)F)cc4)cc3)c(C)nc2cc1OC ; system: SW-620
75.3

// fetch growth at 10 µM; item: COc1cc2cc(Oc3ccc(NC(=O)Nc4cccc(C(F)(F)F)c4)cc3)c(C)nc2cc1OC ; system: SW-620
17.5

// fetch growth at 10 µM; item: COc1cc2cc(Oc3ccc(NC(=O)Nc4cc(C(F)(F)F)cc(C(F)(F)F)c4)cc3)c(C)nc2cc1OC ; system: SW-620
15.9

// fetch growth at 10 µM; item: COc1cc2cc(Oc3ccc(NC(=O)Nc4ccccc4)cc3)c(C)nc2cc1OC ; system: SW-620
105

// fetch growth at 10 µM; item: COc1cc2cc(Oc3ccc(NC(=O)Nc4ccc(C)cc4)cc3)c(C)nc2cc1OC ; system: SW-620
107

// fetch growth at 10 µM; item: Cc1nc2cc(O)c(O)cc2cc1Oc1ccc(NC(=O)Nc2ccc(Cl)c(Cl)c2)cc1 ; system: SW-620
49.3

// fetch growth at 10 µM; item: COc1cc2cc(Oc3ccc(NC(=O)Nc4ccc(Cl)c(Cl)c4)cc3)c(C)nc2cc1OC ; system: SW-620
23.4

// fetch growth at 10 µM; item: COc1cc2cc(Oc3ccc(NC(=O)Nc4ccc(Cl)c(C(F)(F)F)c4)cc3)c(C)nc2cc1OC ; system: SW-620
7.51

// fetch growth at 10 µM; item: COc1cc2cc(Sc3ccc(NC(=O)Nc4ccc(Cl)c(Cl)c4)cc3)c(C)nc2cc1OC ; system: SW-620
89.9

Cited source for all entries: ChEMBL document CHEMBL3994622
